Just for reference, patent US20210171613A1 is where these values come from.

target: T1, Clostridium difficile toxin A (TcdA) (Clostridium difficile, UniProt P16154 1-2710); assay: SPR (Biacore 3000), VHH over immobilized TcdA, 1:1 fit
T1 construct: mature; also called full-length TcdA
T1 sequence (P16154 whole entry): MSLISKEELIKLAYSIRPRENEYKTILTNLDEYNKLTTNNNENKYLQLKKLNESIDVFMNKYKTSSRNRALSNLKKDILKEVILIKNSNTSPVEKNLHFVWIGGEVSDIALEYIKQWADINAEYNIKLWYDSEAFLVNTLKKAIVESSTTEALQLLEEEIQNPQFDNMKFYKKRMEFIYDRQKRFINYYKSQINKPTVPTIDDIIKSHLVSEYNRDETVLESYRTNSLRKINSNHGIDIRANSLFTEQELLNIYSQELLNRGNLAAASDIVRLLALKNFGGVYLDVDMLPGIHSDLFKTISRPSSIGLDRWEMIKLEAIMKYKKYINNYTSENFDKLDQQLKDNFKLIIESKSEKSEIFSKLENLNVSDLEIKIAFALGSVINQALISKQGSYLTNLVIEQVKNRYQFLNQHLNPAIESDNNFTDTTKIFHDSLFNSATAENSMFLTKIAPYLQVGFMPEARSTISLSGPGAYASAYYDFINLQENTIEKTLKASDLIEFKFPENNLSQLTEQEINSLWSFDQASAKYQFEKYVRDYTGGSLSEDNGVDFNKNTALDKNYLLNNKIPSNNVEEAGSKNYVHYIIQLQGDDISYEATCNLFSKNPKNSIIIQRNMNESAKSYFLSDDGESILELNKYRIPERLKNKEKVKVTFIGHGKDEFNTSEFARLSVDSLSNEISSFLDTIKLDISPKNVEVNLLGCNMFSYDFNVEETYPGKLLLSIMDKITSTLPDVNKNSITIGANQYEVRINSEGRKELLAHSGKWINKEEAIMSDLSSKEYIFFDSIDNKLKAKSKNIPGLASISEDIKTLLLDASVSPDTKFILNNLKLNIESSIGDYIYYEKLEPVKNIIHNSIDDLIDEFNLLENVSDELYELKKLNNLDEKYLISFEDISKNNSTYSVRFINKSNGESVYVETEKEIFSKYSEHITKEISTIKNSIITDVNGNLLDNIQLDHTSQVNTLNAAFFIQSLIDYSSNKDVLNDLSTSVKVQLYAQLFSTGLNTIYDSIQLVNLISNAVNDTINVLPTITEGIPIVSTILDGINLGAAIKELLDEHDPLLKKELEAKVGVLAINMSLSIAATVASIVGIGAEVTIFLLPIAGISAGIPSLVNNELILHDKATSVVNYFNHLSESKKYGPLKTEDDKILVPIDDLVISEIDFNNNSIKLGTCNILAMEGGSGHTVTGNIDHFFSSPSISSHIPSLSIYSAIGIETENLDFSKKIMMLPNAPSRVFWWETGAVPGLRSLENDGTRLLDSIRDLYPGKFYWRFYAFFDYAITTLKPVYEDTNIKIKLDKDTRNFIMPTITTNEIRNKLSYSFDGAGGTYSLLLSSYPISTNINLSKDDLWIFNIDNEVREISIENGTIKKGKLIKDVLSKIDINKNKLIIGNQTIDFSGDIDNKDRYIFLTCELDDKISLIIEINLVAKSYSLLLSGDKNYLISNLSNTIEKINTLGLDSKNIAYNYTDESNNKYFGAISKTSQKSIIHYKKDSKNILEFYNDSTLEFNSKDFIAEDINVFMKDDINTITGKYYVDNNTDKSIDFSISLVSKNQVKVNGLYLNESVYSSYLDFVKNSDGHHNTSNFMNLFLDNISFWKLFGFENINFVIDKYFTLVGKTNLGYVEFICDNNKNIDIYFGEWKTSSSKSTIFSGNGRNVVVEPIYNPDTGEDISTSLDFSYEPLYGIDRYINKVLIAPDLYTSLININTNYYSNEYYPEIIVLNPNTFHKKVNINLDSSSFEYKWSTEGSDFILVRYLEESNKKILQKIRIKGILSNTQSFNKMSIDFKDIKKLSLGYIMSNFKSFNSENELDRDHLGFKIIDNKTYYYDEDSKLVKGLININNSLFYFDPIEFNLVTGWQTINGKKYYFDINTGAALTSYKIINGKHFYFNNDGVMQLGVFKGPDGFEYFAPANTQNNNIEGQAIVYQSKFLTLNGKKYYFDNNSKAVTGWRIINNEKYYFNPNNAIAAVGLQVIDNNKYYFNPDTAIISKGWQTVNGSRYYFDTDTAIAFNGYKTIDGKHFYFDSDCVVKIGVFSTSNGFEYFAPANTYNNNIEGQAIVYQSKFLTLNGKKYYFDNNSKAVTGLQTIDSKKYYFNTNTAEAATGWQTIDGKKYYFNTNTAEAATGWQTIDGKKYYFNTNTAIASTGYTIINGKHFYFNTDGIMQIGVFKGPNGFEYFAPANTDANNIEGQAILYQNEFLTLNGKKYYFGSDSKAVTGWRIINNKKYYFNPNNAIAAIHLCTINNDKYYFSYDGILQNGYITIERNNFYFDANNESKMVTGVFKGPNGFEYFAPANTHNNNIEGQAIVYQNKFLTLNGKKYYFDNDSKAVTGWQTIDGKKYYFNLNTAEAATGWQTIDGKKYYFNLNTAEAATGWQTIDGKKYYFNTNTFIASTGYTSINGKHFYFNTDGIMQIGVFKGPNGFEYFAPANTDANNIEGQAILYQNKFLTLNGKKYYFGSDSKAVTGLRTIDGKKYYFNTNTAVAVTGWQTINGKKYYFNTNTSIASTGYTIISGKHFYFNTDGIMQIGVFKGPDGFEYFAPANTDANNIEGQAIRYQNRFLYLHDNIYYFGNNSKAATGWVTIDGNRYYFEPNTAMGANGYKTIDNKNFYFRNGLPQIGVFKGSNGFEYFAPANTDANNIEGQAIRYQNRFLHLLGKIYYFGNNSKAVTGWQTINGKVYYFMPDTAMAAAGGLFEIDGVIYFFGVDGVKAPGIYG
measured quantity: koff
# output: number + unit

>  <binder>
A26.8-T56I (VHH, not shown: small tags and cut ends) VHH: QVKLEESGGGLVQAGGSLRLSCAASERTFSRYPVAWFRQAPGAEREFVAVISSTGISTYYADSVKGRFTISRDNAKVTVYLQMNNLKREDTAVYFCAVNSQRTRLQDPNEYDYWGQGTQVTVSS

>  <measured quantity>
koff

>  <result>
0.0262 s⁻¹

$$$$
>  <binder>
A26.8 VHH mutant T54W (VHH, not shown: small tags and cut ends) VHH: QVKLEESGGGLVQAGGSLRLSCAASERTFSRYPVAWFRQAPGAEREFVAVISSWGTSTYYADSVKGRFTISRDNAKVTVYLQMNNLKREDTAVYFCAVNSQRTRLQDPNEYDYWGQGTQVTVSS

>  <measured quantity>
koff

>  <result>
0.0561 s⁻¹

$$$$
>  <binder>
A26.8-T103K (VHH, not shown: small tags and cut ends) VHH: QVKLEESGGGLVQAGGSLRLSCAASERTFSRYPVAWFRQAPGAEREFVAVISSTGTSTYYADSVKGRFTISRDNAKVTVYLQMNNLKREDTAVYFCAVNSQRKRLQDPNEYDYWGQGTQVTVSS

>  <measured quantity>
koff

>  <result>
0.0199 s⁻¹

$$$$
>  <binder>
A26.8-T56R, T103K (VHH, not shown: small tags and cut ends) VHH: QVKLEESGGGLVQAGGSLRLSCAASERTFSRYPVAWFRQAPGAEREFVAVISSTGRSTYYADSVKGRFTISRDNAKVTVYLQMNNLKREDTAVYFCAVNSQRKRLQDPNEYDYWGQGTQVTVSS

>  <measured quantity>
koff

>  <result>
0.0291 s⁻¹

$$$$
>  <binder>
A26.8-Q101K,T103K (VHH, not shown: small tags and cut ends) VHH: QVKLEESGGGLVQAGGSLRLSCAASERTFSRYPVAWFRQAPGAEREFVAVISSTGTSTYYADSVKGRFTISRDNAKVTVYLQMNNLKREDTAVYFCAVNSKRKRLQDPNEYDYWGQGTQVTVSS

>  <measured quantity>
koff

>  <result>
0.0396 s⁻¹

$$$$

Req: Read off the recorded koff for A26.8-T56R, Q101K (VHH, not shown: small tags and cut ends) VHH: QVKLEESGGGLVQAGGSLRLSCAASERTFSRYPVAWFRQAPGAEREFVAVISSTGRSTYYADSVKGRFTISRDNAKVTVYLQMNNLKREDTAVYFCAVNSKRTRLQDPNEYDYWGQGTQVTVSS
Resp: 0.0497 s⁻¹

Req: Give the measured koff for A26.8-T103M (VHH, not shown: small tags and cut ends) VHH: QVKLEESGGGLVQAGGSLRLSCAASERTFSRYPVAWFRQAPGAEREFVAVISSTGTSTYYADSVKGRFTISRDNAKVTVYLQMNNLKREDTAVYFCAVNSQRMRLQDPNEYDYWGQGTQVTVSS
Resp: 0.0237 s⁻¹

Req: Return reported koff. Input binder: A26.8 VHH mutant D107Y (VHH, not shown: small tags and cut ends) VHH: QVKLEESGGGLVQAGGSLRLSCAASERTFSRYPVAWFRQAPGAEREFVAVISSTGTSTYYADSVKGRFTISRDNAKVTVYLQMNNLKREDTAVYFCAVNSQRTRLQYPNEYDYWGQGTQVTVSS
Resp: 0.0711 s⁻¹

Req: Please give measured koff of the following entry: A26.8-T103W (VHH, not shown: small tags and cut ends) VHH: QVKLEESGGGLVQAGGSLRLSCAASERTFSRYPVAWFRQAPGAEREFVAVISSTGTSTYYADSVKGRFTISRDNAKVTVYLQMNNLKREDTAVYFCAVNSQRWRLQDPNEYDYWGQGTQVTVSS
Resp: 0.0361 s⁻¹

Req: Write down koff measured for item A26.8-T56R, T103M (VHH, not shown: small tags and cut ends) VHH: QVKLEESGGGLVQAGGSLRLSCAASERTFSRYPVAWFRQAPGAEREFVAVISSTGRSTYYADSVKGRFTISRDNAKVTVYLQMNNLKREDTAVYFCAVNSQRMRLQDPNEYDYWGQGTQVTVSS
Resp: 0.0304 s⁻¹

Req: Respond only with koff recorded for A26.8-T58K (VHH, not shown: small tags and cut ends) VHH: QVKLEESGGGLVQAGGSLRLSCAASERTFSRYPVAWFRQAPGAEREFVAVISSTGTSKYYADSVKGRFTISRDNAKVTVYLQMNNLKREDTAVYFCAVNSQRTRLQDPNEYDYWGQGTQVTVSS
Resp: 0.0327 s⁻¹
